# target-under-test: Mu-type opioid receptor (Homo sapiens)
# Sequence (P35372 whole entry): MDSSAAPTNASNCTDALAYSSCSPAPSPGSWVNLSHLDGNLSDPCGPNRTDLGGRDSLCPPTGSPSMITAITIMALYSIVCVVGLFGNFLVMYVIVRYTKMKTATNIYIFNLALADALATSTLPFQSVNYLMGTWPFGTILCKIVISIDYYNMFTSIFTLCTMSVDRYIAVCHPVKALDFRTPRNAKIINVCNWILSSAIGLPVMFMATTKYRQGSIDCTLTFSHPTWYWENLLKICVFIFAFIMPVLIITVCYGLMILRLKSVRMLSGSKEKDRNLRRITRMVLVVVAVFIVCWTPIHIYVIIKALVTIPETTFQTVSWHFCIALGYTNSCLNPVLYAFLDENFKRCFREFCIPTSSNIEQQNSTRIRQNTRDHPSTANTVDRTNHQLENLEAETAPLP
measured-endpoint: Ki

Input Cc1nc[nH]c1Cc1nc(-c2ccccc2)cs1 , output reported Ki.
> 1 µM

* * *

# target-under-test: Serotonin 3 (5-HT3) receptor (Rattus norvegicus) (UniProt P35563+Q9JJ16)
# measurement-description: Serotonin receptor antagonist activity was measured as ability to block the serotonin-induced Bezold-Jarisch reflex in rats after iv administration of 2 ug/Kg
# Type: functional, organism-based
Record form. Attribute: inhibition. Fill in for each entry.
Quick reminder: number only, in %, skip the unit.

Input Cc1[nH]cnc1Cc1nc(-c2cccc3cccnc23)cs1 , output reported inhibition.
43

Input COc1ccccc1-c1csc(Cc2[nH]cnc2C)n1 , output reported inhibition.
57.9

Input Cc1[nH]cnc1Cc1nc(-c2ccccc2F)cs1 , output reported inhibition.
66.4

Input Cc1[nH]cnc1Cc1nc(-c2ccccc2)cs1 , output reported inhibition.
10.7

* * *

# target-under-test: D(2) dopamine receptor (Homo sapiens, UniProt P14416)
# Sequence (P14416 whole entry): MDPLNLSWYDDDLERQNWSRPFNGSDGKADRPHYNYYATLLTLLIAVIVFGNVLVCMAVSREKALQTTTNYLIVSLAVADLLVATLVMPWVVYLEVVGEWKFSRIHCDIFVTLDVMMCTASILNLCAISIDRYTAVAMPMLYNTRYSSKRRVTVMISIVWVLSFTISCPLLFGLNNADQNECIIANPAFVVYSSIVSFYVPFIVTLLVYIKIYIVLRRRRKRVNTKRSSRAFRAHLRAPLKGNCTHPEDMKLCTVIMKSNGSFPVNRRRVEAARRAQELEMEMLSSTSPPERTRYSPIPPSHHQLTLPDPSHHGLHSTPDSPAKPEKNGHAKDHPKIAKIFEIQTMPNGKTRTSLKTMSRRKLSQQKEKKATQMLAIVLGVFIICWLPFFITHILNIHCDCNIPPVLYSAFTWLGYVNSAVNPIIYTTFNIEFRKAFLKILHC
# measurement-description: Binding affinity for Dopamine receptor D2 was determined by using [3H]spiperone as radioligand
pKi: −log10 of the molar value.
measured-endpoint: pKi

Input Cc1nc[nH]c1Cc1nc(-c2ccccc2)cs1 , output reported pKi.
< 6.00

* * *

# target-under-test: D(1A) dopamine receptor (Mus musculus, UniProt Q61616)
# Sequence (Q61616 whole entry): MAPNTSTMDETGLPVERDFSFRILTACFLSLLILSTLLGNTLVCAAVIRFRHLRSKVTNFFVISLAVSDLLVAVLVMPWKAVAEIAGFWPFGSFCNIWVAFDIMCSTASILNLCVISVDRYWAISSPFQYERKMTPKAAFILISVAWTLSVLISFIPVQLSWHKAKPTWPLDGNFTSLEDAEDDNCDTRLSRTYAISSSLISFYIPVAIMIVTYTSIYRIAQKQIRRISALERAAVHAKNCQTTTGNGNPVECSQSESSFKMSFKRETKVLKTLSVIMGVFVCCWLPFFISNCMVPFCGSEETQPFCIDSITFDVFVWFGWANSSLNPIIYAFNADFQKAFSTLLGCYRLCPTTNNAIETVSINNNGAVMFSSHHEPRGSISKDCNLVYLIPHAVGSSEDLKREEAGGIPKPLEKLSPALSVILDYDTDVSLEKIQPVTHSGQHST
# measurement-description: Binding affinity for Dopamine receptor D1 was determined by using [3H]SCH-23390 as radioligand
measured-endpoint: Ki

Input Cc1nc[nH]c1Cc1nc(-c2ccccc2)cs1 , output reported Ki.
> 1 µM

* * *

# target-under-test: 5-hydroxytryptamine receptor 3A
# measurement-description: Binding affinity towards 5-hydroxytryptamine 3 receptor by displacement of [3H]2 in Neuroblastoma-Glioma NG-108-15 cells
measured-endpoint: Ki (nM)
Quick reminder: number only, in nM, skip the unit.

Provide Ki, system 5-hydroxytryptamine receptor 3A, entry Cc1[nH]cnc1Cc1nc(-c2ccccc2F)cs1
1.94

Provide Ki, system 5-hydroxytryptamine receptor 3A, entry Cc1nc[nH]c1Cc1nc(-c2c[nH]c3ccccc23)cs1
12

Provide Ki, system 5-hydroxytryptamine receptor 3A, entry Cc1[nH]cnc1Cc1nc(-c2cccc3cccnc23)cs1
1

Provide Ki, system 5-hydroxytryptamine receptor 3A, entry COc1ccccc1-c1csc(Cc2[nH]cnc2C)n1
0.42

Provide Ki, system 5-hydroxytryptamine receptor 3A, entry Cc1nc[nH]c1Cc1nc(-c2ccccc2)cs1
1.8

* * *

# target-under-test: 5-hydroxytryptamine receptor 2C (Rattus norvegicus, UniProt P08909)
# Sequence (P08909 whole entry): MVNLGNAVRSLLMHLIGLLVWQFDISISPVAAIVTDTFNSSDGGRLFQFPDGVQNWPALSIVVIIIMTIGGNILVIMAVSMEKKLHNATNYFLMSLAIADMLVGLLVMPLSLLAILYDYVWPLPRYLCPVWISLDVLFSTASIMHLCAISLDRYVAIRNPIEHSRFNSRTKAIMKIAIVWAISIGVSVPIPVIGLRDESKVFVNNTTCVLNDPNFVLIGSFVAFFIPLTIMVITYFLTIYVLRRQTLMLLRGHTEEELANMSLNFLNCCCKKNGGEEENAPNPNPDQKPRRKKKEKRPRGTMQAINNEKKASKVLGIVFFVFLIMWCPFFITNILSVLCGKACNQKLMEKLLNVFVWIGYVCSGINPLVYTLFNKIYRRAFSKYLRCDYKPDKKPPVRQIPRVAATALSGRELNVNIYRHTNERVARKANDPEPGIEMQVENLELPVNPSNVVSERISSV
# measurement-description: Binding affinity for 5-hydroxytryptamine 1C receptor was determined by using [3H]- mesulergine as radioligand
measured-endpoint: Ki

Input Cc1nc[nH]c1Cc1nc(-c2ccccc2)cs1 , output reported Ki.
> 1000 nM
